Origin of measurements: PubChem BioAssay (EPA / NIEHS)

Experiment: ATG_AP_1_CIS: Attagene CIS-FACTORIAL HepG2 Assay for human Activator Protein 1 (AP-1) (AID 2282931)
Details: HepG2 Attagene cis-factorial AP-1 reporter mRNA; actives raise or lower the signal
Activity calls are given as the source filed them. The calls were made as follows: active = hit-call score of the fitted dose curve at least 0.9, where 1 is the maximum; inactive = score below 0.9.
Choose the fitting class; nothing outside active, inactive is accepted.

Completed entries (count: 6):
INSERT INTO measurements (compound, group_label) VALUES
  ('CC(=O)OCCOCCOCCOC(C)=O', 'inactive'),
  ('O=C(N[C@@H](Cc1ccccc1)[C@@H](O)C(=O)N1C[C@@H](O)[C@@H](O)C1)c1cc2cc(Cl)ccc2[nH]1', 'active'),
  ('Cc1nc(C)nc(N2C[C@@H](C)N(c3ccnc([C@@H](C)O)n3)[C@@H](C)C2)n1', 'active'),
  ('Cc1cc(NC(=O)C(=O)O)cc(C)c1Oc1ccc(O)c2c1CCC2', 'inactive'),
  ('CC(=O)C(C)=CC1C(C)=CCCC1(C)C (centres undefined)', 'inactive'),
  ('CCCCOC(=O)CCCCCCCCC(=O)OCCCC', 'inactive');

Name the outcome recorded for CCCCCC(=O)O in the assay. inactive

Name the outcome recorded for CCNc1cccc(C)c1 in the assay. inactive

Name the outcome recorded for CC1=C(/C=C/C(C)=C/C=C/C(C)=C/CO)C(C)(C)CCC1 in the assay. active

Name the outcome recorded for C=CCc1ccc(O)c(OC)c1 in the assay. inactive

Name the outcome recorded for COc1cc(/C=C/C(=O)CC(=O)/C=C/c2ccc(O)c(OC)c2)ccc1O in the assay. active

Name the outcome recorded for CNC(=O)[C@H]1O[C@@H](n2cnc3c(NCc4cc(Cl)ccc4OCc4cc(C)no4)ncnc32)[C@H](O)[C@@H]1N in the assay. inactive

Name the outcome recorded for OC[C@@H](O)[C@@H](O)[C@H](O)[C@H](O)CO in the assay. inactive

Name the outcome recorded for CCCCN(CCCC)CCCC in the assay. inactive

====

Biological target: Retinoic acid receptor alpha (Homo sapiens) (UniProt P10276)
Sequence (P10276 whole entry, looked up): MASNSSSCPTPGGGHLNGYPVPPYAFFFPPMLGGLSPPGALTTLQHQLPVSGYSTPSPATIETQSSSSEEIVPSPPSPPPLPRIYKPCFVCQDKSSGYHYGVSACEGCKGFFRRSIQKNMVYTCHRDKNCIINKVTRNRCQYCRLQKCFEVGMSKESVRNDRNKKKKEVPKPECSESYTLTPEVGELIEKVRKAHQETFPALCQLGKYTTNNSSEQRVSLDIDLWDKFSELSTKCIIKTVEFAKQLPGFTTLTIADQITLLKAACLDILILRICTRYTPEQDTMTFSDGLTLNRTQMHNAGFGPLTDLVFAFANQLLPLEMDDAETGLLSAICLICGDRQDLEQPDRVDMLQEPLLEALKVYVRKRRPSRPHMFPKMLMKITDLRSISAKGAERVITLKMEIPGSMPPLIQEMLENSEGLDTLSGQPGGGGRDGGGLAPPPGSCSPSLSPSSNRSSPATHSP
Assay: ATG_RARa_TRANS: Attagene TRANS-FACTORIAL HepG2 Assay for human Retinoic Acid Receptor alpha (RARa) (AID 2283005)
Results filed as inconclusive are left out. Calls of active or inactive are those of the source. How the source made its calls: active means hit-call score of the fitted dose curve at least 0.9, where 1 is the maximum; inconclusive means response in the unintended direction; inactive means score below 0.9.
Choose the fitting class; nothing outside True (active), False (inactive) is accepted.

Completed entries (count: 2):
INSERT INTO results (smiles_data, group_label) VALUES
  ('FC(F)(F)C(F)(F)C(F)(F)C(F)(F)C(F)(F)C(F)(F)CCI', 'False'),
  ('CC1=C(/C=C/C(C)=C/C=C/C(C)=C/CO)C(C)(C)CCC1', 'True');

Next, consider the following compound.
Name the outcome recorded for CCCCCCC(=O)OCC in the assay. False

====

Read-out: ABC Transporter (ABCB1), ABCB1 (gene 5243)
Experiment: LTEA_HepaRG_ABCB1: Life Technologies and Expression Analysis (LTEA) Assay for ABC Transporter (ABCB1) using HepaRG (AID 2283460)
Settings: mRNA level, 48 h; actives raise or lower the signal
Activity calls are given as the source filed them. How the source made its calls: active means hit-call score of the fitted dose curve at least 0.9, where 1 is the maximum; inactive means score below 0.9.
Choose the fitting class; nothing outside active, inactive is accepted.

Completed entries (count: 10):
INSERT INTO results (compound, group_label) VALUES
  ('CNCc1cc(F)ccc1Oc1ccc(Cl)c(Cl)c1', 'inactive'),
  ('O=C(O)CCCCC(=O)O', 'inactive'),
  ('CN1CCN(Cc2cc(-c3ccc4[nH]c(=O)oc4c3)co2)[C@@H](c2ccc(F)cc2)C1', 'inactive'),
  ('NCCO', 'inactive'),
  ('COCCOC[C@H](CC1(C(=O)NC2CCC(C(=O)O)CC2)CCCC1)C(=O)Oc1ccc2c(c1)CCC2 (stereo not given in full)', 'inactive'),
  ('Oc1ccc2ccccc2c1N=Nc1ccccc1', 'inactive'),
  ('COc1cc(S(=O)(=O)O)c(C)cc1N=Nc1c(O)ccc2cc(S(=O)(=O)O)ccc12', 'inactive'),
  ('Cc1ccc(N(C)C)cc1', 'inactive'),
  ('Cc1nc(-c2ccc3c(c2)CCN(CCC2CCC(NC(=O)/C=C/c4ccc(F)cc4)CC2)CC3)no1 (stereo not given)', 'inactive'),
  ('CCCCOC(=O)CCCCCCCCC(=O)OCCCC', 'inactive');

Name the outcome recorded for CC1=C(/C=C/C(C)=C/C=C/C(C)=C/CO)C(C)(C)CCC1 in the assay. active

Name the outcome recorded for CC(C)(C)c1cc(O)c(C(C)(C)C)cc1O in the assay. active

Name the outcome recorded for CCCCc1ccc2c(n1)[C@@H](c1ccc(OC)cc1C[C@H](C)C(=O)O)[C@H](C(=O)O)[C@H]2c1ccc2c(c1)OCO2 in the assay. inactive

Name the outcome recorded for OC[C@@H](O)[C@@H](O)[C@H](O)[C@H](O)CO in the assay. inactive

Name the outcome recorded for COc1ccc(C)cc1N in the assay. inactive

====

Target: Cellular tumor antigen p53 (Homo sapiens) (UniProt P04637)
Sequence (P04637 whole entry, looked up): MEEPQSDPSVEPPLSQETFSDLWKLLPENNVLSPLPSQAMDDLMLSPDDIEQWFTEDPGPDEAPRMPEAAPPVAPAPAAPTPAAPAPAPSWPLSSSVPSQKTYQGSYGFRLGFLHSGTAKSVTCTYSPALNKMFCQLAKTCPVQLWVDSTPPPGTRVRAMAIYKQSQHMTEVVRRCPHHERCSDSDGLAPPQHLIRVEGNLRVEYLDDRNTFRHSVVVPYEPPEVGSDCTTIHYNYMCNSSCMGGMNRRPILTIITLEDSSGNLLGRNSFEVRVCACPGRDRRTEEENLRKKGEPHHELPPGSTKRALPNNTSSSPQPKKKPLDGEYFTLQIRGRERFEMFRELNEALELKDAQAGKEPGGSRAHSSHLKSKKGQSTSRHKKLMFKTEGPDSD
Experiment: TOX21_p53_BLA_p3_ratio: Tox21 HCT-116 p53 Agonism Beta-lactamase Assay, Ratio, Phase 3 (AID 2283596)
Results filed as inconclusive are left out. The source made the active and inactive calls. How the source made its calls: active means hit-call score of the fitted dose curve at least 0.9, where 1 is the maximum; inconclusive means response in the unintended direction; inactive means score below 0.9.
Choose the fitting class; nothing outside t for active, f for inactive is accepted.

INSERT INTO results (compound, group_label) VALUES
  ('CC1(C)CC(N=C=O)CC(C)(CN=C=O)C1 (centres undefined)', 'f');

Name the outcome recorded for Cc1oc(-c2ccccc2)nc1CCOc1cccc2c1ccn2CCC(=O)O in the assay. f

Name the outcome recorded for Oc1ccc2c(c1)OC[C@@H](N1CCC(O)(c3ccc(F)cc3)CC1)[C@H]2O in the assay. f

Name the outcome recorded for COc1cc(S(=O)(=O)O)c(C)cc1N=Nc1c(O)ccc2cc(S(=O)(=O)O)ccc12 in the assay. f

Name the outcome recorded for Cc1cccc([N+](=O)[O-])c1C in the assay. f

Name the outcome recorded for O=C(O)CCCCC(=O)O in the assay. f

Name the outcome recorded for Cc1cc(=O)[nH]c(=S)[nH]1 in the assay. f

Name the outcome recorded for CCc1c(C(=O)NN2CCCCC2)nn(-c2ccc(Cl)cc2Cl)c1-c1ccc(Br)cc1 in the assay. f

Name the outcome recorded for COc1cc(-c2nc(NC(=O)c3cc4cc(C)cc(C)c4n3CC(=O)O)sc2CCC2CCCCC2)c(OC)cc1Cl in the assay. t

Name the outcome recorded for CCCCCCOCCO in the assay. f

Name the outcome recorded for CC(=O)Oc1ccccc1C(=O)O in the assay. f

Name the outcome recorded for Cc1ccc(C(C)C)c(O)c1 in the assay. f

Name the outcome recorded for CCCCCCCC=O in the assay. f

Name the outcome recorded for COc1ccc(C)cc1N in the assay. f

Name the outcome recorded for CCCCCCC(=O)OCC in the assay. f

====

Experiment: APR_HepG2_MicrotubuleCSK_72hr: Apredica 72-hour HepG2 Assay for Microtubule CSK Stabilty (AID 2282919)
Details: HepG2 microtubule cytoskeleton, high-content imaging, actives raise or lower the signal
Active and inactive are the calls of the source. How the source made its calls: active means hit-call score of the fitted dose curve at least 0.9, where 1 is the maximum; inactive means score below 0.9.
Choose the fitting class; nothing outside t (active), f (inactive) is accepted.

INSERT INTO assay_data (compound, group_label) VALUES
  ('CCCCCCCCCCCCCCCCCC(=O)O', 'f'),
  ('COc1cc(/C=C/C(=O)CC(=O)/C=C/c2ccc(O)c(OC)c2)ccc1O', 't'),
  ('C=CCOC(=O)c1ccccc1C(=O)OCC=C', 'f'),
  ('FC(F)(F)C(F)(F)C(F)(F)C(F)(F)C(F)(F)C(F)(F)CCI', 'f'),
  ('CC(=O)OCCOCCOCCOC(C)=O', 'f'),
  ('Cc1ccc(C)c(O)c1C', 'f'),
  ('O=c1[nH]cc(F)c(=O)[nH]1', 'f'),
  ('CCCCCCCCCCCCCO', 'f');

Next, consider the following compound.
Name the outcome recorded for OC[C@@H](O)[C@@H](O)[C@H](O)[C@H](O)CO in the assay. f

====

Read-out: CYP4A11 (gene 1579)
Test: LTEA_HepaRG_CYP4A11: Life Technologies and Expression Analysis (LTEA) Assay for CYP4A11 using HepaRG (AID 2283486)
Conditions: mRNA level, 48 h; actives raise or lower the signal
The source made the active and inactive calls. How the source made its calls: active means hit-call score of the fitted dose curve at least 0.9, where 1 is the maximum; inactive means score below 0.9.
Choose the fitting class; nothing outside True = active, False = inactive is accepted.

Completed entries (count: 3):
INSERT INTO results (smiles_data, group_label) VALUES
  ('O=C(O)CCCCC(=O)O', 'False'),
  ('Cc1ccc(Cl)cc1', 'False'),
  ('CCCCCCCCCCCCCO', 'False');

Name the outcome recorded for COc1cc(C=O)ccc1O in the assay. False

Name the outcome recorded for CCCCOC(=O)CCCCCCCCC(=O)OCCCC in the assay. False

Name the outcome recorded for C1CCC(SSC2CCCCC2)CC1 in the assay. False
